protocol notes: basal CRE-LacZ reporter activity in PC12 – cell-based, unstimulated, primary screen (AID 1145)
experimental parameters: no forskolin, luminescence, 4.5 h, higher = more signal, called active from +8 up or from −8 down
Decision: z-score >= 0.6 yields yes, all other cases yield no.

INSERT INTO results (compound, group) VALUES
  ('CCOC(=O)C1=CC[C@@H](c2ccc(OC)cc2)N(S(=O)(=O)c2ccc(C)cc2)[C@H]1c1ccc(C)cc1', 'no'),
  ('C=CCNC(=O)[C@@H]1[C@H]2C(=O)O[C@H](c3ccccc3)[C@H](c3ccccc3)N2[C@H](c2ccc(OCCO)cc2)[C@@]12C(=O)Nc1ccc(C#CC3(O)CCCCCC3)cc12', 'no'),
  ('COc1ccc(C(=O)Nc2cccc(CN3C(=O)[C@@]4(O[C@@H](CC(=O)N5CCC[C@H]5CO)[C@H]([Si](C)(C)c5ccc(OC)cc5)[C@H]4C)c4ccccc43)c2)cc1', 'yes');

stdin: Please tell me: is the compound O=C1O[C@@H](c2ccccc2)[C@@H](c2ccccc2)N2[C@@H](c3ccccc3OCCO)[C@]3(C(=O)Nc4ccc(C#CCCO)cc43)[C@@H](C(=O)NC[C@H](O)c3ccccc3)[C@H]12 at or over 0.6 in terms of z-score?
stdout: no

stdin: Please tell me: is the compound C=CC[C@@]12N=C(c3ccc(OCCCO)cc3)O[C@@H]1c1ccccc1N(CCC)C2=O at or over 0.6 in terms of z-score?
stdout: yes

stdin: Please tell me: is the compound COC(=O)C[C@H]1O[C@@]2(C[C@@H]1[Si](C)(C)C)C(=O)N(C)c1ccccc12 at or over 0.6 in terms of z-score?
stdout: yes

stdin: Please tell me: is the compound C=CCOC(=O)[C@@H]1[C@H]2C(=O)O[C@H](c3ccccc3)[C@H](c3ccccc3)N2[C@H](c2ccc(OCCOC(=O)[C@H]3C[C@H]4C(=O)N5CCC[C@H]5C(=O)N4[C@H]3c3cccc(OCCO)c3)cc2)[C@@]12C(=O)Nc1ccc(I)cc12 at or over 0.6 in terms of z-score?
stdout: no

stdin: Please tell me: is the compound C=C(CCCC)C(=O)CC[C@@H](OC(=O)c1ccccc1-c1ccccc1C(=O)O)c1ccccc1OCCO at or over 0.6 in terms of z-score?
stdout: yes
